Biological target: α4β2 (Homo sapiens, UniProt P17787+P43681)
Sequence (P43681 29-627): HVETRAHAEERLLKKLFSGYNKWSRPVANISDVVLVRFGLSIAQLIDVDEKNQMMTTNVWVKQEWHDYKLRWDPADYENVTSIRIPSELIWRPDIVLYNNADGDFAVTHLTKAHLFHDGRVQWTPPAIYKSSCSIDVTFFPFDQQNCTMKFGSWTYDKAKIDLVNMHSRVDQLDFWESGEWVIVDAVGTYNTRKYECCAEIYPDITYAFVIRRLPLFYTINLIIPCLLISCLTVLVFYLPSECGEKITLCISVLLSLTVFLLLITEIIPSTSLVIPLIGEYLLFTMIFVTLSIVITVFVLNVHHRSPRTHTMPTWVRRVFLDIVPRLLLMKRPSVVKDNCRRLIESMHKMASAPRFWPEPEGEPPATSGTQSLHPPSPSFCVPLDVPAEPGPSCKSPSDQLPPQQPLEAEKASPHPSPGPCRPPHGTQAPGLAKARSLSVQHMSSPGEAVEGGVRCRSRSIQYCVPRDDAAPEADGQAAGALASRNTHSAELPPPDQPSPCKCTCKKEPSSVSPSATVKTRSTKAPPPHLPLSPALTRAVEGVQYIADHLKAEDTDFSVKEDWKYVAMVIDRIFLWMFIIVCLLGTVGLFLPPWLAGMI
Sequence (P17787 26-502): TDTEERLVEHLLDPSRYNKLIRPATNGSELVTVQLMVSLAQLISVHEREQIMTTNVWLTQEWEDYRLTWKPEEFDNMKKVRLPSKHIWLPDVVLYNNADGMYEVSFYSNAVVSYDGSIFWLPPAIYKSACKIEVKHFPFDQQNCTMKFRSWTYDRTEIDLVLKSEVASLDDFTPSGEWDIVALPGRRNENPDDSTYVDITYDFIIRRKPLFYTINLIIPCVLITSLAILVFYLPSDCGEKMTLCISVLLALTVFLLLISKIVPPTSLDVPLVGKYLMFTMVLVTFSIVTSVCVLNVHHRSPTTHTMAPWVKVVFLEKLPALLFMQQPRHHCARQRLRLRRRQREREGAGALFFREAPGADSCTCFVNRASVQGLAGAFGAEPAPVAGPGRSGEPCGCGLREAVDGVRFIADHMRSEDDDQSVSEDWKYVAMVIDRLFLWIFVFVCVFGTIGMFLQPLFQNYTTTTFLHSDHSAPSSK
Test: Ion channel panel (IonWorks Barracuda): α4β2
Settings: α4β2; read-out: IC50 of receptor/channel inhibition with reference compound
Description: This example describes a method for assaying ion channel activity in cells. Peptides were screened in duplicate at final concentrations of 20 μM and 200 nM, as determined by amino acid analysis, and diluted into HEPES buffered physiological saline (HBPS). HEK293 or CHO cells from the American Type Culture Collection (ATCC) were transfected with the appropriate ion channel before use. […]
reported_metric: pIC50
Hey, just a heads up that pIC50 is the negative log base 10 of the concentration in molar.

Give the measured pIC50 of CNC1(C)C2CCC(C2)C1(C)C (stereo not shown) [Mecamylamine, reference compound] .
5.94

----------
Biological target: TRPV1 (Homo sapiens, UniProt Q8NER1)
Construct: host or cells: HEK293 or CHO
Sequence (Q8NER1 whole entry): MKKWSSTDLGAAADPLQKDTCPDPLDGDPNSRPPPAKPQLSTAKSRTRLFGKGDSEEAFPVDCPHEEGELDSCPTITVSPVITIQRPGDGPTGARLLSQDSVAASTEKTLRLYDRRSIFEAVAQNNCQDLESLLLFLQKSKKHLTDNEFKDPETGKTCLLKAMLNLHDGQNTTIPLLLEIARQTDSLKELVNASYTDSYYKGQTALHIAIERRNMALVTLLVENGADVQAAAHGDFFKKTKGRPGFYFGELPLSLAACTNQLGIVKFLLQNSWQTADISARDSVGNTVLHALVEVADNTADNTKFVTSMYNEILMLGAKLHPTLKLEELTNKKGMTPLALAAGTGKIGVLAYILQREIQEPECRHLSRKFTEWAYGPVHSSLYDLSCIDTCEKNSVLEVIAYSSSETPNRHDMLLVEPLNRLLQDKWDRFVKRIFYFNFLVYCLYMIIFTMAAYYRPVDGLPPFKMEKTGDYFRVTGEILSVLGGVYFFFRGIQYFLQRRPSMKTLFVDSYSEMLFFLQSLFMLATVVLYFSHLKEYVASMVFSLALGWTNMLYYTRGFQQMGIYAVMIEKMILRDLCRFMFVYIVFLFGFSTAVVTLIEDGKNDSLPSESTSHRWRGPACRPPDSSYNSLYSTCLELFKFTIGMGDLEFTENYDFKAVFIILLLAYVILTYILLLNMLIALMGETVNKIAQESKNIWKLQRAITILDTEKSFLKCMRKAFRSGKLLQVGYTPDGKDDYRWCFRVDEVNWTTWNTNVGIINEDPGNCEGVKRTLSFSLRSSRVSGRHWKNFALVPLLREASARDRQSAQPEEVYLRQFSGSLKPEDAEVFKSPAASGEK
Experiment: Ion channel panel (IonWorks Barracuda): TRPV1
Format: cell-based
Conditions: peptide at 0.2 μM; 100% = no change, <100% = inhibition
reported_metric: Activity of TRPV1 with peptide, expressed as a percentage of the reference compound (%)
Field format: number, assumed %, no unit text.

# query: Activity of TRPV1 with peptide, expressed as a percentage of the reference compound of entry 36 (GSAQEPVKGPVSTKPGSCPIILIRCAMLNPPNRCLKDTDCPGIKKCCEGSCGMACFVPQ) [compound 36]
103

Suppose we examine the substance 29 (GSVFINVKCRGSPECLPKCKEAIGKSAGKCMNGKCKCYP) [compound 29] ; what Activity of TRPV1 with peptide, expressed as a percentage of the reference compound value has been reported?
109

Item under review: 38 (GSGIGDPVTCLKSGAICHPVFCPRRYKQIGTCGLPGTKCCKKP) [compound 38] . Reported Activity of TRPV1 with peptide, expressed as a percentage of the reference compound?
98

Entry 24 (GSSCAKPGEMCMRIKCCDGQCGCNRGTGRCFCK) [compound 24] : reported Activity of TRPV1 with peptide, expressed as a percentage of the reference compound = ?
131

Would you mind telling me what Activity of TRPV1 with peptide, expressed as a percentage of the reference compound value was observed for 39 (GSGVPTDVKCRGSPQCIQPCKDAGMRFGKCMNGKCHCTPK) [compound 39] ?
95

# query: Activity of TRPV1 with peptide, expressed as a percentage of the reference compound of entry 21 (GSAEIIRCSGTRECYAPCQKLTGCLNAKCMNKACKCYGCV) [compound 21]
106

Return reported Activity of TRPV1 with peptide, expressed as a percentage of the reference compound; argument: 10 (GSQVQTNVKCQGGSCASVCRREIGVAAGKCINGKCVCYRN) [compound 10]
111

----------
Biological target: Nav1.5 (Homo sapiens, UniProt Q14524)
Sequence (Q14524 whole entry): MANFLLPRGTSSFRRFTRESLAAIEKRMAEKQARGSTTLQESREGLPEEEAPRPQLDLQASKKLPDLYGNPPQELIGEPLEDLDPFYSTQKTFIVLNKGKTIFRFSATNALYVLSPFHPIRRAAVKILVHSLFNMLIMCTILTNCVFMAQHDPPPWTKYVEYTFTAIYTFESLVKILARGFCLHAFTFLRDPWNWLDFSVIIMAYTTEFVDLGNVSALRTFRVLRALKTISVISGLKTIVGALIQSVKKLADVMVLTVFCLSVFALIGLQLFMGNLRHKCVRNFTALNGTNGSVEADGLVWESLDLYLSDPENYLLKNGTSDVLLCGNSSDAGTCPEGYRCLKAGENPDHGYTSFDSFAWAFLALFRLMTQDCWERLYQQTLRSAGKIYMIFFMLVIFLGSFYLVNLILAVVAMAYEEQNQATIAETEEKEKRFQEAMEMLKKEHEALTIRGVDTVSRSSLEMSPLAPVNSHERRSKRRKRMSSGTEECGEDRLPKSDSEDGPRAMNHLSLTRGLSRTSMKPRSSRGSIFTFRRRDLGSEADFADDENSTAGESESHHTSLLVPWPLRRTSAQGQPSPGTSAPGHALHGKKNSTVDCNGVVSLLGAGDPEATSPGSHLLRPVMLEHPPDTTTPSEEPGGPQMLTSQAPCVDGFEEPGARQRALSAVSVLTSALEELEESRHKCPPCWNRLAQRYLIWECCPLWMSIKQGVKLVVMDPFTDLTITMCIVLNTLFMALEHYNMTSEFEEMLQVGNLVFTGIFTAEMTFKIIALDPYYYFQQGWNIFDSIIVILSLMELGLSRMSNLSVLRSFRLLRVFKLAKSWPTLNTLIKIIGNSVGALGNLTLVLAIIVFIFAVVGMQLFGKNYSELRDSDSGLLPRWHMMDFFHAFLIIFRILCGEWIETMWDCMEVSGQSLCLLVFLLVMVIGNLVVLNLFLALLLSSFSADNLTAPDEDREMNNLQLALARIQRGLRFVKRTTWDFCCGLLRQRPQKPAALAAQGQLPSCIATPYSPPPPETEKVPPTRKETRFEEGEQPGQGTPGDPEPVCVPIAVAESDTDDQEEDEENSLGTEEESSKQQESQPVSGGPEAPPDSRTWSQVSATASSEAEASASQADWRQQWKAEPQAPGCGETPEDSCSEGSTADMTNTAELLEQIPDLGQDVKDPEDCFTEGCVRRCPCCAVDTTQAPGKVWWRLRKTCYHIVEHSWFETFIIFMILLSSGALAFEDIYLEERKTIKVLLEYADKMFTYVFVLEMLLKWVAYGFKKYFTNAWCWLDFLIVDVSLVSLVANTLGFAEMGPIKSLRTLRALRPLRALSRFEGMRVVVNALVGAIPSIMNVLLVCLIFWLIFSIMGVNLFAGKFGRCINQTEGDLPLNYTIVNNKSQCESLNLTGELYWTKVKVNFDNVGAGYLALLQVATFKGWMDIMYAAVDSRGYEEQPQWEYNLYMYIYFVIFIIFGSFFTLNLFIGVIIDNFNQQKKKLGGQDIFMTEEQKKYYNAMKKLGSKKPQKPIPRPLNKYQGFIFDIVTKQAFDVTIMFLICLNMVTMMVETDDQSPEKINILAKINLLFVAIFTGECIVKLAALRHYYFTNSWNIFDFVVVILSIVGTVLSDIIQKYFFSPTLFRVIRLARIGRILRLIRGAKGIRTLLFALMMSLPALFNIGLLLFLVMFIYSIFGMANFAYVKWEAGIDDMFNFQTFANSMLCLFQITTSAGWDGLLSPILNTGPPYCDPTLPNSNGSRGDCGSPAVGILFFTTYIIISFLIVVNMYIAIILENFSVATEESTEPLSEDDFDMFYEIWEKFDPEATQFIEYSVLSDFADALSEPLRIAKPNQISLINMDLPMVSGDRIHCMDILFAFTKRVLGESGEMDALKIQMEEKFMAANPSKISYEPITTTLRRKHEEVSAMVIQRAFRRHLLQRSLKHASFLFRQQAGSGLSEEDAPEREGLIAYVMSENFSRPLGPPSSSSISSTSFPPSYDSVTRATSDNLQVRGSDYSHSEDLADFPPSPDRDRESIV
Test: in vitro
Conditions: peptide at 20 μM; first of two Nav1.5 columns (probably TP1); 100% = no change
# Activity of Nav1.5 with peptide (percentage of the reference compound) annotations
Respond numerically; units are % and should not be typed.

Solved cases below.
substance	data_value
39 (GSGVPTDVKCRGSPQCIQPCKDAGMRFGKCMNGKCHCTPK) [compound 39]	111
2 (GSEVIRCSGSKQCYGPCKQQTGCTNSKCMNKVCKCYGCG) [compound 2]	102

Requested read-out: Activity of Nav1.5 with peptide (percentage of the reference compound). Entry: 34 (GGYSRCQLQGFNCVVRSYGLPTIPCCRGLTCRSYFPGSTYGRCQRY) [compound 34]
101

Which value of Activity of Nav1.5 with peptide (percentage of the reference compound) has been reported for 29 (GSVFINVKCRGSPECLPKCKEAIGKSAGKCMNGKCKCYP) [compound 29] in the records?
103

----------
Biological target: Kv1.2 (Homo sapiens, UniProt P16389)
Construct: host or cells: HEK293 or CHO
Sequence (P16389 whole entry): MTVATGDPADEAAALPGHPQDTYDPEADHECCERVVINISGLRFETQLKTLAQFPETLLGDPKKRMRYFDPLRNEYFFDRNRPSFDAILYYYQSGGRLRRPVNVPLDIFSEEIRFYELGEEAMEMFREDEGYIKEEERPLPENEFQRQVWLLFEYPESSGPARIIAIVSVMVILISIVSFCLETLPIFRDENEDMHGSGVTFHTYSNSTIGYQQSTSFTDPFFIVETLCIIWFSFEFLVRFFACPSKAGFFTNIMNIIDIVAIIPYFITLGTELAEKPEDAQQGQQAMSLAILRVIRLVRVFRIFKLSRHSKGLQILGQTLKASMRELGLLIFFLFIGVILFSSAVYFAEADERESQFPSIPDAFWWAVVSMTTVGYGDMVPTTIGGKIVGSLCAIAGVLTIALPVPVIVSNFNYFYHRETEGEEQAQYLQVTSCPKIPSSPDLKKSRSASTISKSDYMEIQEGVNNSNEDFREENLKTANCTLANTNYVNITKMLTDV
Test: cell-based
Format: cell-based
Settings: peptide at 20 μM; 100% = no change, <100% = inhibition
Protocol: This example describes a method for assaying ion channel activity in cells. Peptides were screened in duplicate at final concentrations of 20 μM and 200 nM, as determined by amino acid analysis, and diluted into HEPES buffered physiological saline (HBPS). HEK293 or CHO cells from the American Type Culture Collection (ATCC) were transfected with the appropriate ion channel before use. […]
# Activity of Kv1.2 with peptide (percentage of the reference compound) annotations
Give the number; % is assumed, so skip it.

substance	readout_unit	data_value
20 (GSQIDTNVKCSGSSKCVKICIDRYNTRGAKCINGRCTCYP) [compound 20]	%	74

Given 24 (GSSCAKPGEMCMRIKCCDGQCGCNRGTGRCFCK) [compound 24] , state its recorded Activity of Kv1.2 with peptide (percentage of the reference compound).
83

What measured Activity of Kv1.2 with peptide (percentage of the reference compound) goes with 32 (GSQDKCKKVYENYPVSKCQLANQCNYDCKLDKHARSGECFYDEKRNLQCICDYCEY) [compound 32] ?
112

I'd like to know its Activity of Kv1.2 with peptide (percentage of the reference compound). The substance in question is 19 (GSQFTDVKCTGSKQCWPVCKQMFGKPNGKCMNGKCRCYS) [compound 19]
37

Record request: Activity of Kv1.2 with peptide (percentage of the reference compound) value, item 5 (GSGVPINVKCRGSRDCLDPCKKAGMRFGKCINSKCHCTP) [compound 5]
73

Could you share which Activity of Kv1.2 with peptide (percentage of the reference compound) value was measured for 25 (GSACLAEYQKCEGSTVPCCPGLSCSAGRFRKTKLCTK) [compound 25] ?
85

Which Activity of Kv1.2 with peptide (percentage of the reference compound) is reported for this substance? 21 (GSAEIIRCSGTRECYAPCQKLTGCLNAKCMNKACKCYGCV) [compound 21]
36

GET /values?readout=Activity of Kv1.2 with peptide (percentage of the reference compound)&item= 36 (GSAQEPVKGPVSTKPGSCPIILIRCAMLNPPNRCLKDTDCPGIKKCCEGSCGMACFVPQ) [compound 36]
87

Please look up its Activity of Kv1.2 with peptide (percentage of the reference compound): 9 (GSGCFGYKCDYYKGCCSGYVCSPTWKWCVRPGPGR) [compound 9]
104

Query: Activity of Kv1.2 with peptide (percentage of the reference compound); subject: 16 (GSQFCGTNGKPCVNGQCCGALRCVVTYHYADGVCLKMNP) [compound 16]
61

Look up Activity of Kv1.2 with peptide (percentage of the reference compound) for this substance: 39 (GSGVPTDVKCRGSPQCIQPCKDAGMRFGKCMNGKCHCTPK) [compound 39]
84

----------
Activity of TRPV1 with peptide (percentage of the reference compound) reference
Target: TRPV1 (Homo sapiens)
Construct: host or cells: HEK293 or CHO
Experiment: Ion channel panel (IonWorks Barracuda): TRPV1
Assay type: cell-based
Details: peptide at 20 μM; 100% = no change, <100% = inhibition

substance	target_of_assay	data_value
9 (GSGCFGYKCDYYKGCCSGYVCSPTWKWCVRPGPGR) [compound 9]	TRPV1 (Homo sapiens)	79%
13 (GSQKILSNRCNNSSECIPHCIRIFGTRAAKCINRKCYCYP) [compound 13]	TRPV1 (Homo sapiens)	88%

Quick check: Activity of TRPV1 with peptide (percentage of the reference compound) on TRPV1 (Homo sapiens), item 29 (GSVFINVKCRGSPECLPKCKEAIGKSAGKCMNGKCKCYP) [compound 29] ?
86%

Please provide the recorded Activity of TRPV1 with peptide (percentage of the reference compound) for 22 (GSSDYCSNDFCFFSCRRDRCARGDCENGKCVCKNCHLN) [compound 22] , tested on TRPV1 (Homo sapiens).
67%

Lookup: Activity of TRPV1 with peptide (percentage of the reference compound) / TRPV1 (Homo sapiens) / 19 (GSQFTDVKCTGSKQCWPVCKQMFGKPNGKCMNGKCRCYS) [compound 19]
90%

Tell me reported Activity of TRPV1 with peptide (percentage of the reference compound) for 27 (GSACQFWSCNSSCISRGYRQGYCWGIQYKYCQCQ) [compound 27] , tested with TRPV1 (Homo sapiens).
67%

Query the reported Activity of TRPV1 with peptide (percentage of the reference compound) for TRPV1 (Homo sapiens); item: 30 (GSQVSTNKKCSNTSQCYKTCEKVVGVAAGKCMNGKCICYP) [compound 30]
84%

Return Activity of TRPV1 with peptide (percentage of the reference compound) measured with TRPV1 (Homo sapiens) given this substance: 24 (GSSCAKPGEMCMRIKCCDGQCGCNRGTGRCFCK) [compound 24]
102%

// lookup Activity of TRPV1 with peptide (percentage of the reference compound) | system=TRPV1 (Homo sapiens) | key= 34 (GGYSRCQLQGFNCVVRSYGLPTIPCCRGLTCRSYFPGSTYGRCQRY) [compound 34]
71%
